Target: T1, human OX40 on cells (CHO-K1/hu OX40) (human, UniProt P43489 29-277)
T1 construct: whole, on cells; Also used here for OX40 on the HEK293/OX40/NF-kb reporter cells and on human T cells in the functional assays; also called CHO-K1/OX40; human OX40 cells
T1 sequence (looked up): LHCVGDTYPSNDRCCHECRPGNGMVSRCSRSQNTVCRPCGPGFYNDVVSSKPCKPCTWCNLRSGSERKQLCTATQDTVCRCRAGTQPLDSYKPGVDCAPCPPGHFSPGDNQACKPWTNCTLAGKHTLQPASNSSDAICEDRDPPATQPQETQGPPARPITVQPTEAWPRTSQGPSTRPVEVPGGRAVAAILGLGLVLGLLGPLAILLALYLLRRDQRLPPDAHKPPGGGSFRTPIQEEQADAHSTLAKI
Test: FACS, CHO-K1/hu OX40 cells
Description: This example is intended to investigate the in vitro binding activity of anti-human OX40 HCAb monoclonal antibodies to human OX40. The antibody binding assay at the cellular level was performed using a stable CHO-K1 cell strain overexpressing human OX40 (CHO-K1/hu OX40). […] Finally, the cells in each well were resuspended in 200 μL of pre-cooled PBS, and the fluorescence signal values were read using a BD FACS CANTOII.
In this section, each of the binders is paired with its reported Maximum MFI.
Write the answer as a number in MFI, unit excluded.

Examples with their reported Maximum MFI follow.
>>> observedvalue("PR002070 (antibody, human IgG1, V domains shown, no light chain; also called anti-OX40 HCAb antibody) VH: EVQLLESGGGLVQPGGSLRLSCIASGFSFSSYAMSWVRQAPGKGLEWVSAISGRGGSTFYADSVRGRFNISRDNSKNTLYLQMNSLRVEDTAVYYCANGMTGTTDVDYWGQGTLVTVSS")
2530
>>> observedvalue("PR002077 (antibody, human IgG1, V domains shown, no light chain; also called anti-OX40 HCAb antibody) VH: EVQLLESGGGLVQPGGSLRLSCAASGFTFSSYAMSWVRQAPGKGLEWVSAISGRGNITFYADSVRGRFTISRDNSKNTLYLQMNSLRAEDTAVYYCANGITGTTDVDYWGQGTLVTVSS")
3980
>>> observedvalue("PR002069 (antibody, human IgG1, V domains shown, no light chain; also called anti-OX40 HCAb antibody) VH: EVQLLESGGGLVQPGGSLRLSCAASGFTFSSYAMSWVRQAPGKGREWVSAISGGGGNTFYADSVRGRFTISRDNSKNTLYLQMNSLRAEDTAVYYCANGVTGTTDVDYWGQGTLVTVSS")
2990
>>> observedvalue("PR002073 (antibody, human IgG1, V domains shown, no light chain; also called anti-OX40 HCAb antibody) VH: EVQLVESGGGLVQPGGSLRLSCAASGFTFSSYAMSWVRQAPGKGLEWVSAISGGSGSTFYADSVRGRFTISRDNSKNTLYLQMNSLRAEDTAVYYCADGVTGTDFDFWGQGTLVTVSS")
3260
>>> observedvalue("PR002057 (antibody, human IgG1, V domains shown, no light chain; also called anti-OX40 HCAb antibody) VH: EVQLLESGGGLVQPGGSLRLSCAASGFIFSSYAMSWVRQAPGKGLEWVSAISGGGGSTFYADSVRGRFTISRDNSKNTLYLQMNSLRAEDTAVYYCADGMTGTTDVDYWGQGTLVTVSS")
1670
>>> observedvalue("PR002064 (antibody, human IgG1, V domains shown, no light chain; also called anti-OX40 HCAb antibody) VH: EVQLVETGGGLVQPGGSLRLSCAASGFTFSSYAMSWVRQAPGKGQEWVSAISGSGGSTFYADSVRGRFTISRDNSKNTLYLQMSSLRAEDTAVYYCANGMTGTTDVDYWGQGTLVTVSS")
1570

Field: next binder
Record summary for PR002067 (antibody, human IgG1, V domains shown, no light chain; also called anti-OX40 HCAb antibody) VH: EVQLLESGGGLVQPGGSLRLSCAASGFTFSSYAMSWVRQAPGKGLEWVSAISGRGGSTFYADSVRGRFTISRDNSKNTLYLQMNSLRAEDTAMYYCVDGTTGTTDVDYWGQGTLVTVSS : reported Maximum MFI = 3010
